B1: library; numbered along this chain (parent)
chain: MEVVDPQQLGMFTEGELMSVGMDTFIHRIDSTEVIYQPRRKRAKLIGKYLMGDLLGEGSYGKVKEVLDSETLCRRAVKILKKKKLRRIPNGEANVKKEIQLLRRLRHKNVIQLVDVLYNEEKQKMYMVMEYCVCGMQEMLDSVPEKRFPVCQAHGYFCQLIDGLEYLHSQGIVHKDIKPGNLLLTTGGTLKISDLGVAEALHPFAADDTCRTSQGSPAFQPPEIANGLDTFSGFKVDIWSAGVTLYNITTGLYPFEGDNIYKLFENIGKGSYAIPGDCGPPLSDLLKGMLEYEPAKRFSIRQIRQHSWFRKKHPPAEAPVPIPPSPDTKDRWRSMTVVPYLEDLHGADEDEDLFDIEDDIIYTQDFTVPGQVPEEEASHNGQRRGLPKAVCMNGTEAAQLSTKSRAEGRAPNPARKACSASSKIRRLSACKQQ

variants of: B1; assay: STK11 functional score (HeLa growth suppression), rescaled enrichment; synonymous median = 1, nonsense median = 0 (normalised score); conditions: with HeLa; variant type: missense
readout name: STK11 functional score

Below, each entry is followed by its recorded STK11 functional score result.
mutation spec: E375D
STK11 functional score: 1.58

mutation spec: P217A
STK11 functional score: 1.25

mutation spec: F148I
STK11 functional score: 1.31

mutation spec: P222Q
STK11 functional score: 0.712

mutation spec: A273K
STK11 functional score: 0.589

mutation spec: G52C
STK11 functional score: 1.49

From here, focus on the item given below.
Lab book: STK11 functional score of `I248S` noted as 0.859
